Cited source for all entries: patent EP1377579B1

Target: cdk4/cyclin D1 (Homo sapiens, UniProt P11802)
Sequence (P11802 whole entry): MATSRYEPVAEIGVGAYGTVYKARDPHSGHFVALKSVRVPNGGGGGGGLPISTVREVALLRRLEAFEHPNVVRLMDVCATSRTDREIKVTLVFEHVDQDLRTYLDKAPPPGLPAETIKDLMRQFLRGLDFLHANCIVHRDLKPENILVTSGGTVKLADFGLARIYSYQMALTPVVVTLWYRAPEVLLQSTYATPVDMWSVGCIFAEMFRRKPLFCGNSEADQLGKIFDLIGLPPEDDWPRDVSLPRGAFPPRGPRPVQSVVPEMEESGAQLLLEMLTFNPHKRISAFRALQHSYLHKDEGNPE
Sequence (P24385 whole entry partner): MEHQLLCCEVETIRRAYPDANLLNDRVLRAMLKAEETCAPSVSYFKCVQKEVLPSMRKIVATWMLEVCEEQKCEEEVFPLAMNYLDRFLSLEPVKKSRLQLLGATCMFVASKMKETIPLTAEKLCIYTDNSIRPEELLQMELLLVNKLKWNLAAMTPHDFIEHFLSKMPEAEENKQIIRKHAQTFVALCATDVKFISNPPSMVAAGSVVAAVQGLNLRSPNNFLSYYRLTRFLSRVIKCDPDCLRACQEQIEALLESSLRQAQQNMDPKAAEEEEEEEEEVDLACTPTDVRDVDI
Assay: Cyclin-dependent kinase assay, cdk4/cyclin D1
Format: biochemical
Settings: cyclin D1/cdk4; GST-pRb substrate, 10 µM ATP
Counter-ions that a name gives are not always drawn.
IC50 vs 500 nM: less than gives Y; not less than gives N.

COc1ccc(CC(=O)N2CCC(Nc3nc(N[C@H]4CC[C@H](N)CC4)nc4c3ncn4C3CCCC3)CC2)cc1 [compound 42, dihydrochloride] = Y
CCOC(=O)c1cccc(NC(=O)N2CCC(Nc3nc(N[C@H]4CC[C@H](N)CC4)nc4c3ncn4C3CCCC3)CC2)c1 [compound 195, dihydrochloride] = Y
N[C@H]1CC[C@H](Nc2nc(NC3CCN(C(=O)CCC4CCCC4)CC3)c3ncn(C4CCCC4)c3n2)CC1 [compound 36, dihydrochloride] = N
N[C@H]1CC[C@H](Nc2nc(NC3CCN(C(=O)NC4CCCCC4)CC3)c3ncn(C4CCCC4)c3n2)CC1 [compound 205, dihydrochloride] = N
N[C@H]1CC[C@H](Nc2nc(NC3CCN(S(=O)(=O)c4cccc(C(=O)O)c4)CC3)c3ncn(C4CCCC4)c3n2)CC1 [compound 135, dihydrochloride] = Y
CCCCCNC(=O)N1CCC(Nc2nc(N[C@H]3CC[C@H](N)CC3)nc3c2ncn3C2CCCC2)CC1 [compound 184, dihydrochloride] = Y
CC(C)c1ccc(NC(=O)N2CCC(Nc3nc(N[C@H]4CC[C@H](N)CC4)nc4c3ncn4C3CCCC3)CC2)cc1 [compound 190, dihydrochloride] = Y
Cl.Cl.N[C@H]1CC[C@H](Nc2nc(NC3CCN(C(=O)Nc4ccc(C(F)(F)F)cc4)CC3)c3ncn(C4CCCC4)c3n2)CC1 [compound 149, dihydrochloride] = Y

Q: Is it true that IC50 reported for N[C@H]1CC[C@H](Nc2nc(NC3CCN(C(=O)CSc4ccccc4)CC3)c3ncn(C4CCCC4)c3n2)CC1 [compound 46, dihydrochloride] is less than 500 nM?
Result: N

Q: What about C/C=C/C(=O)N1CCC(Nc2nc(N[C@H]3CC[C@H](N)CC3)nc3c2ncn3C2CCCC2)CC1 [compound 35, dihydrochloride] ?
Result: N

---

Target: cdk4/cyclin D1 (Homo sapiens)
Experiment: Cyclin-dependent kinase assay, cdk4/cyclin D1
Format: biochemical
Details: cyclin D1/cdk4; GST-pRb substrate, 10 µM ATP
Structures can show the parent of a compound that is named as a salt.
observation.type: pIC50
Numbers only, as −log10 of the molar value.

N[C@H]1CC[C@H](Nc2nc(NC3CCN(S(=O)(=O)c4c(Cl)cccc4Cl)CC3)c3ncn(C4CCCC4)c3n2)CC1 [compound 121, dihydrochloride] = 7.08

Please look at the items below and tell me pIC50 for each one, in order.
1. COC(=O)c1ccc(C(=O)N2CCC(Nc3nc(N[C@H]4CC[C@H](N)CC4)nc4c3ncn4C3CCCC3)CC2)cc1 [compound 11, dihydrochloride]
2. N[C@H]1CC[C@H](Nc2nc(NC3CCN(C(=O)Nc4ccc(F)c(C(F)(F)F)c4)CC3)c3ncn(C4CCCC4)c3n2)CC1 [compound 203, dihydrochloride]
3. N[C@H]1CC[C@H](Nc2nc(NC3CCN(C(=O)Nc4cc(F)ccc4F)CC3)c3ncn(C4CCCC4)c3n2)CC1 [compound 180, dihydrochloride]

Result:
1. 6.21
2. 6.13
3. 6.37
